- experimental.system: T1, rat plasma Kallikrein (rat, UniProt P14272 391-638, limits assumed)
- T1 construct: domain: catalytic domain; also called rPK; rat PK
- T1 sequence (P14272 391-638 limits assumed): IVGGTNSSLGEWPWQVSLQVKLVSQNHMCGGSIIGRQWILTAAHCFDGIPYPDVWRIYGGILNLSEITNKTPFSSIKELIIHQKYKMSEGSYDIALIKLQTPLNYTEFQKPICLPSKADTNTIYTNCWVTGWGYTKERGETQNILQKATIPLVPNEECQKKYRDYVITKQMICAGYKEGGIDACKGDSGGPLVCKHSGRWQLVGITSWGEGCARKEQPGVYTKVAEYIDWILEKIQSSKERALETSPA
- assay.comment: enzyme inhibition
Numbered stars: 1 amine (or outer) side, 2 acyl side, 3 side chain; on linkers, the order of the positions; unused ones are H or OH. Bridge positions count the residues as written; N and C are the ends. Ends that are not written are not given here. TBMB = c1c(C[*:1])cc(C[*:3])cc1C[*:2]
measurement.kind: IC50 (nM)
One number for each entry, in nM.

For the 3 binders below, give their IC50 values.
1. ACRWPARCMHQDLCA (linker 2-8-14 via TBMB; not fully specified (N-terminus, C-terminus)) [06-34-04]
2. ACRWPARCLHQDLCA (linker 2-8-14 via TBMB; not fully specified (N-terminus, C-terminus)) [06-34-05]
3. ACSWPARCLHQDLCA (linker 2-8-14 via TBMB; not fully specified (N-terminus, C-terminus)) [06-34-18 (01 + 05)]

Solution:
1: 0.56; 2: 0.62; 3: 0.56
